Test: p53 small molecule agonists, cell-based qHTS assay with rat liver microsomes: qHTS cell viability counter screen (AID 1963580); also: nearly all actives have a fitted effect of over 45% in size
Settings: p53RE-bla HCT-116 + rat microsomes, ATP viability, 16 h; series mostly up to 66 µM
Records with an inconclusive call do not appear. Active and inactive are the calls of the source. Calls follow the shape of the full dose curve.
Tick one outcome: YES (active), NO (inactive)

Known results for compounds:
O=C(N[C@@H]1N=C(c2ccccc2F)c2cccc3c2N(CC3)C1=O)c1cc2ccccc2[nH]1 = NO
COc1ccc2[nH]cc(CCN(C(C)C)C(C)C)c2c1 = NO
ClCCCN1CCN(c2cccc(Cl)c2)CC1 = NO
CCOCn1c(-c2ccc(Cl)cc2)c(C#N)c(Br)c1C(F)(F)F = YES
CCOP(=S)(OCC)SCS(=O)(=O)CC = NO

Problem: Any idea what this test logged for CN1C(=O)CN=C(c2ccccc2)c2cc([N+](=O)[O-])ccc21 ?
Solution: NO

Problem: So what was the verdict on O=C1CN2CCOC2(c2ccccc2Cl)c2cc(Cl)ccc2N1 (centres undefined) in this test?
Solution: NO

Problem: Outcome? CN1[C@@H]2CC[C@H]1CC(OC(=O)c1cc(Cl)cc(Cl)c1)C2 (some centres undefined)
Solution: NO

---

Assay: p53 small molecule agonists, cell-based qHTS assay with human liver microsomes: qHTS cell viability counter screen (AID 1963579); also: % is scaled to controls: 0 for no effect and ±100 for the full control effect; nearly all actives have a fitted effect of over 45% in size
Details: p53RE-bla HCT-116 viability, ATP luminescence, 16 h, HLM; series mostly up to 66 µM
Inconclusive results are not listed. Activity calls are given as the source filed them. The call rests on the fitted dose curve.
readout_label: activity change, negative = cytotoxicity

Nc1c(Br)cc(Br)c2c1C(=O)c1ccccc1C2=O = 2.22% [at 13.5 µM] (inactive)
Clc1cc2c(cc1Cl)Oc1cc(Cl)c(Cl)cc1O2 = -6.87% [at 0.249 µM] (inactive)
Cc1ccc2nc3sc(=O)sc3nc2c1 = 4.93% [at 13.5 µM] (inactive)
CC(=O)[O-].CC(=O)[O-].CC(=O)[O-].[Sb+3] = 0.868% [at 2.33 µM] (inactive)
NCC(CC(=O)O)c1ccc(Cl)cc1 (configuration not stated) = -3.85% [at 0.249 µM] (inactive)
Cc1ccc2c(c1)C1CN(C)CCC1N2 (configuration not stated) = -1.76% [at 13.5 µM] (inactive)

Attention now turns to another entry.
In plain terms, CN(C)C(=S)[S-].CN(C)C(=S)[S-].[Cu+2] has a documented activity change, negative = cytotoxicity of -25.4% [at 13.5 µM] (inactive)

---

Molecular target: Muscarinic acetylcholine receptor M1 (Homo sapiens) (UniProt P11229)
Sequence (P11229 whole entry, looked up): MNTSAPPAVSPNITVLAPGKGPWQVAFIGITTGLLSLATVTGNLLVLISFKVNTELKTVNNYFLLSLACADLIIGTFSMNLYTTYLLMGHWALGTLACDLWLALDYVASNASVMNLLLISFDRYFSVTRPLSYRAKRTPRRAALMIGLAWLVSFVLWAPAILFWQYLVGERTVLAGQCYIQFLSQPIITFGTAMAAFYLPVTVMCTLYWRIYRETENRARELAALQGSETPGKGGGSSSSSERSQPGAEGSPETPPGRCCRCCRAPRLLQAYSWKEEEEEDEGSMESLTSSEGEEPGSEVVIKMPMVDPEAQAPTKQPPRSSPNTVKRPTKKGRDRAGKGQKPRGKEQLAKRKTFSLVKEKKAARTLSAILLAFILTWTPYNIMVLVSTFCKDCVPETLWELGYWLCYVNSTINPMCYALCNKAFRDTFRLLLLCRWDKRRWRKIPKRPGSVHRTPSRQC
Test: Cholinergic receptor muscarinic 1 (CHRM1) small molecule antagonists, cell-based qHTS assay (AID 1963588); also: nearly all actives have a fitted effect of over 40% in size
Conditions: CHRM1-CHO antagonist mode, calcium flux fluorescence; series mostly up to 61.5 µM
Results filed as inconclusive are left out. Calls of active or inactive are those of the source. Calls follow the shape of the full dose curve.
Reply using exactly one outcome from active, inactive

CC(Cc1ccc(C(C)(C)C)cc1)CN1C[C@@H](C)O[C@@H](C)C1 (some centres not stated) = active
COCc1cnc(C2=NC(C)(C(C)C)C(=O)N2)c(C(=O)O)c1 (configuration not stated) = inactive
O=C(NC(=O)c1c(F)cccc1F)Nc1cc(Cl)c(OC(F)(F)C(F)F)c(Cl)c1 = inactive
Nc1ccccc1-c1ccccc1 = inactive
Cc1cc(C(C)(C)c2ccc(O)c(C)c2)ccc1O = inactive
Cc1cc(Cl)ccc1O[C@H](C)C(=O)O = inactive

Problem: Outcome? CC(C)=CC1C(C(=O)OC(C#N)c2cccc(Oc3ccccc3)c2)C1(C)C (configuration not stated)
Solution: inactive
